# protocol-notes: Primary qHTS for delayed death inhibitors of the malarial parasite plastid, 96 hour incubation
# experimental-context: P. falciparum luciferase reporter growth; series mostly up to 28.7 µM
Screen size: about 320,000 compounds; about 22,000 (6.9%) were called active. Another 27% or so got no clear call; they are omitted. The call rests on the fitted dose curve; in most records, active means well fitted inhibition curve with a large enough effect; inconclusive means small, poorly fitted or top-dose-only effect, or another doubt; inactive means no such curve, though single readings can be large or run the other way. The list comes from a sample in which actives are over-represented; it also holds close analogues and randomly drawn compounds.
Outcome field: choose from true (1) for active, false (0) for inactive

Observe how each entry below is paired with its result.
compound: Cc1cccc(C)c1NC(=O)NC1=CCCN1C
answer-label: false (0)

compound: COc1ccc(-c2nc(SCC(=O)N3CCCC3)n[nH]2)cc1
answer-label: false (0)

compound: CCNC(=O)N1CCCC(C(=O)c2ccc(-c3ccccc3)cc2)C1 (stereo not drawn)
answer-label: true (1)

Each compound tested received a call. Report the one for Fc1ccccc1C(c1nnnn1Cc1ccc2c(c1)OCO2)N1CCN(Cc2ccccc2)CC1 (stereo not drawn) .
true (1)

Each compound tested received a call. Report the one for Cc1ccccc1NC(=O)C1CCCN(C(=O)NCc2ccccc2)C1 (stereo not drawn) .
false (0)

Each compound tested received a call. Report the one for O=C(NCCO)C(=O)NCC(c1ccc2c(c1)OCO2)N1CCN(c2ccc(F)cc2)CC1 (stereo not drawn) .
false (0)

Each compound tested received a call. Report the one for `CCC(=O)Nc1ccc2nn(-c3ccc(F)cc3)nc2c1` .
false (0)
